- procedure_details: soluble on expression in E. coli; label from the status in PepcDB or PDB records
measured_endpoint: soluble on expression in E. coli

[[record]]
record_sequence = "MALTTRRRALTTLGAALTGAVALPAGTALASQGGHGPRPLWRAHAHNDYEHPRPLLDALDHRFGSVEADIYLVGGQLLVAHDPEDLDPSRTLESLYLDPLAARVRAHHGRVYRRDRGSLQLLIDIKTEGEATYLELDRRLRRYKNLFTSYAHGRVFPGAVTAVVSGDRAARAPMAAQRSRRAFYDGRLTDLGTVAPASFVPLISDNWTLNFTWQGVGTFPAAERRRLRDIVGAAHARGQRVRFWATPDVAGPARDAVWAELLAAGVDHLNTDDLAGIEAFLDAHRDALEHHHHHH"
result_value = "soluble"

[[record]]
record_sequence = "MAHHHHHHMTHYSRKPQVSSKSAKAKVSDLRCHYKNTFETANVINGMPLRKAQQLYRQVLAKTRCIPFKRYNGKIGRTAQAKEWGQTKGRWPRKSVVAMMSLLKNAEANAIEKGLDPNQMVIKHVQVDQAARMRRRTYRAHGRITPYMCSPCHVQLFMSEKKERVPAPKSAPKK"
result_value = "not soluble"

[[record]]
record_sequence = "MGSDKIHHHHHHMLELGQTPNAAPDAAPADLIKDTTDATFMADVVDASQTTPVIVDFWAPWCGPCKTLGPQLEAAVTAAKGKVRMVKVNVDENQQIAAQLRVQSIPMVYAFVDGQPIDGFQGAVPESQIKDFVTKLAAMSKEDGGLAEALEAAEEMLSMGEHDDAAQTFAAILGEEPENAAAMGGLARAHLAMGQVDEAEQLLSTAPDAIFNAPELEAVRAQIELARQAESAGPLAELQAAVDANPDDHAARFELAQALHANGDVEQAVDQLLELFRRDREWEDAKAKTQLFTIFDALPPQDPIALTGRRRLSSMIFA"
result_value = "not soluble"

[[record]]
record_sequence = "QLDGLDVYVAGKADVNFLFDRYISTKTELRSTTYSNYLYTWNHFIRDTFGKKKVRDVKYSDVLFFYTDLINNQGLQINTLETINTVLRPTFQLAVRDDIIRKNPVDGAYCEVKKRNGGARKTRRALTVDQQRKFMEYVAKNPFFYHWYPFFVFLLGTGCRIGEAIGIRWDDIDLENRIIDINHSLTYYQRADDSYKCEFRVSLPKTEAGNRRIPMMQQVYDVLQEEYERQKQEGFCVENVDGMTNFVFTNRFGMPHNPAAVNRAIKR"
result_value = "not soluble"

[[record]]
record_sequence = "MAHHHHHHMRHLYGPAPGCVLLSFDFNQMELRVLAHLSGDELLIKHLSSEYDVLSAMTRHITGLSDDEQVPPHLRETVKVVVYGLFYGMGLATMKERVKILMDSAHSVPSSQRKFTADTLLRAFHQRYPAAGKFLTRARIRAFHEARCVTLTGINDLSSEKDGNRRRQHSIARILQGSSSTLFQSAMVKVHERRHDIVPNLPAAPFALVLCIHDELIYSVVEGYVDVVARKIKGIMVEQAQVFSLRVPLRVSVKVGKTFGSLEKLDVP"
result_value = "soluble"


Asked: Give reported soluble on expression in E. coli value for MGSDKIHHHHHHMNEVIENVKEYYGKILHSTADLQSKACCCSPDSMPKEVKKALIFIADEVINRYYGCGSPLPPLLEGMTVLDLGCGSGRDVYVAAQLVGEHGRVIGVDMTQEQLDVAKKYEDEQRQRFGYAKSNVKFLSGYIEDLRAAGISDSSVDIVISNCVVNLSPDKEKVFAEIWRVLKPGGELYFSDVFADRRIPEYLAADPVLRGECIGGALYYEDFRRIMQRVGFTDFRYKSIRNIDLDNEAIIEKVGFANFTERTVRAFKLDDLEDICEDYGQIAVYNGSIASSPHFFDLDDHHRFFTGKPLLVCGNTAAMLAKTRFASAFRVIGNRSTHYGVFGVCGGKSETNCFDTGSSCGC
Given back: not soluble

The measurements presented in this section are drawn from the DeepSol protein solubility set.
